B1: LINE1-full (parent)
chain: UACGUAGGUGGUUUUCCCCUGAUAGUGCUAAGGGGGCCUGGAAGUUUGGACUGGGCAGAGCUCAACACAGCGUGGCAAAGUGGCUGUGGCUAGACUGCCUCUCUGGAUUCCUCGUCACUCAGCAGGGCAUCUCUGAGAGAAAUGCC

variants of: B1; assay: self-cleavage, relative activity (ratio to wild type); higher = more cleavage; in vitro, sequencing; the parent is a self-cleaving ribozyme

Sequence chain	self-cleavage
UACGUAGGUGGUUUUCCCUUGAUAGUGCUAAGGGGGCCUGGAAGUCUGGACUGGGCAGAGCUCAACACAGCGUGGCAAAGUGGCUGUGGCUAGACUGCCUCUCUGGAUUCCUCGUCACUCAGCAGGGCAUCUCUGAGAGAAAUGCC [C19U U46C]	1
UACGUAGGUGGUUUUCCCCUGAUAGAGCUAAGGGGGCCUGGAAGUUUGGACUGGGCAGAGCUCAACACAGCGUGGCAAAGUGGCUGUGGCUAGACUGCCUCUCUGGUUUCCUCGUCACUCAGCAGGGCAUCUCUGAGAGAAAUGCC [U26A A107U]	1.09
UACGUAGGUGGUUUUCCCCUGAUAAUGCUAAGGGGGCCAGGAAGUUUGGACUGGGCAGAGCUCAACACAGCGUGGCAAAGUGGCUGUGGCUAGACUGCCUCUCUGGAUUCCUCGUCACUCAGCAGGGCAUCUCUGAGAGAAAUGCC [G25A U39A]	1.15
UACGUAGGUGGUUUUCCCCUGAUAGUGCUAAGGGGGCCUGGAAGUUUGGACUGGGCAGAGCUCAACACAGCGUGGCAAAGUGGCUGUGGCUAGACUGCCGCUCUGGAUUCCUCGUCACUCAGCAGGGCAUCUCUGAGAGAAGUGCC [U100G A142G]	1.01
UACGUAGGUGGUUUUCCCCUGAUAGUGCUAAGGGGGCCUGGAAGUUUGGACCGGGCAGAGCUCAACACAGCGUGGCAAAGUGGCUGUGGCUAGACUGCCUCUCUGUAUUCCUCGUCACUCAGCAGGGCAUCUCUGAGAGAAAUGCC [U52C G106U]	0.8
UACGUAGGUAGUUUUCCCCUGAUAGUGCUAGGGGGGCCUGGAAGUUUGGACUGGGCAGAGCUCAACACAGCGUGGCAAAGUGGCUGUGGCUAGACUGCCUCUCUGGAUUCCUCGUCACUCAGCAGGGCAUCUCUGAGAGAAAUGCC [G10A A31G]	0.45

This collection of values is drawn from the RNAGym collection of RNA variant scans (doi:10.7554/elife.90254).
